Measured pIC50, listed per entry.
measured.on: NRAS Q61K (Homo sapiens (Human), UniProt P01111+P62937, Q61K)
Sequence (P01111 whole entry Q61K): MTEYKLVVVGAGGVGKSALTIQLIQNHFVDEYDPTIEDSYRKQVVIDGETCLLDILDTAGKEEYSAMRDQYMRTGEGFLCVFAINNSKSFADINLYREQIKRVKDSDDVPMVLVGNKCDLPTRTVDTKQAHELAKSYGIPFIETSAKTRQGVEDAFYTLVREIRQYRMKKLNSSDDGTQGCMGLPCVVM
Sequence (P62937 whole entry): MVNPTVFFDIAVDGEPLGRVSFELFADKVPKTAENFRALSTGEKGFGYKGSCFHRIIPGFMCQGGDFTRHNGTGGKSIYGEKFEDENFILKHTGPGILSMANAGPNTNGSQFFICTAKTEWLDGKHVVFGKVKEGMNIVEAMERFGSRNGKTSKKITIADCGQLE
assay.details: Ras-Raf (BRAF RBD) disruption / FRET / MOA assay, NRAS Q61K
Format: biochemical
test.settings: NRAS Q61K; Ras-Raf disruption/FRET/MOA assay; read-out: IC50* NRAS Q61K FRET data
pIC50: −log10 of the molar value.

Request: Quick one: pIC50 for C=CC(=O)N(C)[C@@H]1CCCN(C(=O)N(C)[C@H](C(=O)N[C@H]2Cc3nc(cs3)-c3ccc4c(c3)c(c(-c3cccnc3[C@H](C)OC)n4CC)CC(C)(C)COC(=O)[C@@H]3CCCN(N3)C2=O)C(C)C)C1 (atropisomer, axis not shown) [Example A382] ?
Response: 7.00 to 8.00

Request: Quick one: pIC50 for C=CC(=O)N1CCC2(C1)CN(C(=O)N(C)[C@H](C(=O)N[C@H]1Cc3nc(cs3)-c3ccc4c(c3)c(c(-c3cccnc3[C@H](C)OC)n4CC(F)(F)F)CC(C)(C)COC(=O)[C@@H]3CCCN(N3)C1=O)C(C)C)C2 [Example A603] ?
Response: 7.00 to 8.00

Request: Quick one: pIC50 for C=CC(=O)N1CCOC2(C1)CN(C(=O)N(C)[C@H](C(=O)N[C@H]1Cc3cccc(c3)-c3ccc4c(c3)c(c(-c3cccnc3[C@H](C)OC)n4CC(F)(F)F)CC(C)(C)COC(=O)[C@@H]3CCCN(N3)C1=O)C(C)C)C2 (atropisomer, axis not shown) [Example A538] ?
Response: 6.00 to 7.00

Request: Quick one: pIC50 for C=CC(=O)N1CC[C@H](C(=O)N(C)[C@H](C(=O)N[C@H]2Cc3nc(cs3)-c3ccc4c(c3)c(c(-c3cccnc3[C@H](C)OC)n4CC(F)(F)F)CC(C)(C)COC(=O)[C@@H]3CCCN(N3)C2=O)C(C)C)C1 (atropisomer, axis not shown) [Example A502] ?
Response: 6.00 to 7.00
